# Target of assay: UniProtKB O42275
# Sequence (O42275 24-633): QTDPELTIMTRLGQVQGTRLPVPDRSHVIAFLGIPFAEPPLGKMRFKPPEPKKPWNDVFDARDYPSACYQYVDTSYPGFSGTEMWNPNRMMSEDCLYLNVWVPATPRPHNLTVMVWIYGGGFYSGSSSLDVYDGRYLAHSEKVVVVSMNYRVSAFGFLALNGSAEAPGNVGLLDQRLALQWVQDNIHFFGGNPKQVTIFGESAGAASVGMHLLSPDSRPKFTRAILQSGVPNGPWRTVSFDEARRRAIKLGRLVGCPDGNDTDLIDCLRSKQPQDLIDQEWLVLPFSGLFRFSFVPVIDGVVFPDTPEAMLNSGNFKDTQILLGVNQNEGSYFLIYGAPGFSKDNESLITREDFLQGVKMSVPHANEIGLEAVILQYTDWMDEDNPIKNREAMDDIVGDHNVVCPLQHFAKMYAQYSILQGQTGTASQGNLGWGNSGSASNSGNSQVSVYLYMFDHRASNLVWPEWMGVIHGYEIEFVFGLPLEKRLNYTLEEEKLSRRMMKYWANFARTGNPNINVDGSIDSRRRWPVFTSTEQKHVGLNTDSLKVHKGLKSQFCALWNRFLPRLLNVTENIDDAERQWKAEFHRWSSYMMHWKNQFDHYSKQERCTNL
# Protocol text: In vitro acetylcholinesterase inhibitory assay (DTNB/acetylthiocholine iodide, absorbance at 412 nm)
# Type: biochemical
# Condition label: IC50(BChE)/IC50(AChE)
Parameter measured: AChE selectivity
// no unit string in output, number only

>>> quantitative_result("O=C1c2ccccc2OCC12C(c1ccccc1Cl)C(Cc1ccccc1)NC21c2ccccc2-c2nc3ccccc3nc21 (stereo not shown)")
4.92
>>> quantitative_result("O=C1c2ccccc2OC[C@@]12[C@H](c1ccccc1)[C@@H](Cc1ccccc1)NC21c2ccccc2-c2nc3ccccc3nc21 (stereo partly shown)")
1.27
>>> quantitative_result("O=C1c2ccccc2OC[C@@]12[C@H](c1ccc(F)cc1)[C@@H](Cc1ccccc1)NC21c2ccccc2-c2nc3ccccc3nc21 (stereo partly shown)")
5.67
>>> quantitative_result("COc1cccc([C@@H]2[C@@H](Cc3ccccc3)NC3(c4ccccc4-c4nc5ccccc5nc43)[C@]23COc2ccccc2C3=O)c1 (stereo partly shown)")
1.25
>>> quantitative_result("O=C1c2ccccc2OC[C@@]12[C@H](c1ccccc1F)[C@@H](Cc1ccccc1)NC21c2ccccc2-c2nc3ccccc3nc21 (stereo partly shown)")
3.83

Value of measured AChE selectivity for the entry O=C1c2ccccc2OC[C@@]12[C@H](c1cccc([N+](=O)[O-])c1)[C@@H](Cc1ccccc1)NC21c2ccccc2-c2nc3ccccc3nc21 (stereo partly shown) : 1.93

Value of measured AChE selectivity for the entry Cc1ccc([C@@H]2[C@@H](Cc3ccccc3)NC3(c4ccccc4-c4nc5ccccc5nc43)[C@]23COc2ccccc2C3=O)cc1 (stereo partly shown) : 1.38

Value of measured AChE selectivity for the entry COc1ccc([C@@H]2[C@@H](Cc3ccccc3)NC3(c4ccccc4-c4nc5ccccc5nc43)[C@]23COc2ccccc2C3=O)cc1 (stereo partly shown) : 1.29

Value of measured AChE selectivity for the entry O=C1c2ccccc2OC[C@@]12[C@H](c1ccc(Br)cc1)[C@@H](Cc1ccccc1)NC21c2ccccc2-c2nc3ccccc3nc21 (stereo partly shown) : 1.32

Value of measured AChE selectivity for the entry O=C1c2ccccc2OC[C@@]12[C@H](c1ccc(Cl)cc1)[C@@H](Cc1ccccc1)NC21c2ccccc2-c2nc3ccccc3nc21 (stereo partly shown) : 2.72

---

Recorded measurements of BChE selectivity, one per entry
# Target of assay: butyrylcholine esterase from equine serum (BChE) (Equus caballus)
# Construct: esterase from equine serum; from tissue; host or cells: equine serum
# Sequence (P81908 whole entry): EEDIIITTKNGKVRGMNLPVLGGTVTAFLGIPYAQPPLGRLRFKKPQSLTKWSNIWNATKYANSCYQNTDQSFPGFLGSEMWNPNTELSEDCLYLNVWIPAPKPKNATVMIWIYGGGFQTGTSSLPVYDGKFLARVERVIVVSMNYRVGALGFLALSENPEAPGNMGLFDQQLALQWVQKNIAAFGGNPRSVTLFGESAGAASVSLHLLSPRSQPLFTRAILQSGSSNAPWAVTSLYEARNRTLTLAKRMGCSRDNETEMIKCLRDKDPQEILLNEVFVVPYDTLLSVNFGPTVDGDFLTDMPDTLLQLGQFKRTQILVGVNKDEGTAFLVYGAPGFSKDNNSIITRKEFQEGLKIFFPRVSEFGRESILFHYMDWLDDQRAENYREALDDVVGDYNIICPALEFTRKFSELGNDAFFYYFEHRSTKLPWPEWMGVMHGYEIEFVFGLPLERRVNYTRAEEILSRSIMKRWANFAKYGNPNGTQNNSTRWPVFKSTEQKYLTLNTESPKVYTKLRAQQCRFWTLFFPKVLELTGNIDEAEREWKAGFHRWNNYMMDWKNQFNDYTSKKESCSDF
# Protocol text: biochemical
# Condition label: IC50(AChE)/IC50(BChE)
// no unit string in output, number only

>>> quantitative_result("COc1ccc([C@@H]2[C@@H](Cc3ccccc3)NC3(c4ccccc4-c4nc5ccccc5nc43)[C@]23COc2ccccc2C3=O)cc1 (stereo partly shown)")
0.77

Value of measured BChE selectivity for the entry O=C1c2ccccc2OC[C@@]12[C@H](c1cccc([N+](=O)[O-])c1)[C@@H](Cc1ccccc1)NC21c2ccccc2-c2nc3ccccc3nc21 (stereo partly shown) : 0.52

Value of measured BChE selectivity for the entry O=C1c2ccccc2OC[C@@]12[C@H](c1ccc(Cl)cc1)[C@@H](Cc1ccccc1)NC21c2ccccc2-c2nc3ccccc3nc21 (stereo partly shown) : 0.37

Value of measured BChE selectivity for the entry Cc1ccc([C@@H]2[C@@H](Cc3ccccc3)NC3(c4ccccc4-c4nc5ccccc5nc43)[C@]23COc2ccccc2C3=O)cc1 (stereo partly shown) : 0.72

Data provenance: paper PMC11167517
